# maps each entry to its composite z-score
Biological target: Torsin-1A (Homo sapiens)
Assay: small-molecule binders of mutant TOR1A in lysate, primary screen, cell lysate, small-molecule microarray, COS7 lysate, 635/667 nm fluorescence (AID 1150);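 also: score pools 667 nm emission and signal to noise measuring lysate protein binding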
Settings: COS7 hTOR1A mutant lysate, 635 nm fluorescence, higher = more signal

>  <MOLECULE>
O=C1C[C@@](C(=O)NCCN2CCOCC2)(c2ccc([N+](=O)[O-])cc2)[C@@H](c2ccc(CO)cc2I)N1CC12CC3CC(CC(C3)C1)C2

>  <TGT>
Torsin-1A (Homo sapiens)

>  <composite z-score>
0.578

$$$$
>  <MOLECULE>
O=C1c2ccccc2[C@](Cc2ccccc2I)(C(=O)NCCN2CCOCC2)[C@H](c2ccc(CO)cc2)N1C1CCCCC1

>  <TGT>
Torsin-1A (Homo sapiens)

>  <composite z-score>
0.469

$$$$
>  <MOLECULE>
NC(=O)NCC#Cc1ccc2c(c1)[C@]1(C(=O)N2)[C@H](c2ccccc2OCCO)N2[C@H](c3ccccc3)[C@H](c3ccccc3)OC(=O)[C@H]2[C@@H]1C(=O)Nc1nc2ccccc2s1

>  <TGT>
Torsin-1A (Homo sapiens)

>  <composite z-score>
0.0313

$$$$
>  <MOLECULE>
O=C1NC(=O)C2C1C=CC(C(O)c1cccs1)N2Nc1ccc(Cl)cc1Cl (stereo not given)

>  <TGT>
Torsin-1A (Homo sapiens)

>  <composite z-score>
0.112

$$$$
>  <MOLECULE>
OCCCC1=CC(c2cccs2)N(Cc2cc3c(cc2Br)OCO3)CC1 (stereo not given)

>  <TGT>
Torsin-1A (Homo sapiens)

>  <composite z-score>
0.396

$$$$

----------
Experiment: small-molecule microarray binders of probe aWnt5a, primary screen, biochemical, biotinylated probe, 635/667 nm fluorescence (AID 1113);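 also: score merges 667 nm fluorescence intensity with signal-to-noise per printed feature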
Settings: higher = more signal
PROPERTY_LABEL: composite z-score

>  <MOLECULE>
O=C1N[C@@H](Cc2ccccc2)C(=O)N2[C@@H]1C[C@@H](C(=O)O)[C@H]2c1cccc(OCCO)c1

>  <VALUE_MEASURED>
-0.176

$$$$
>  <MOLECULE>
CCCCCN1CC=CC23O[C@@H]4C=CCCOC(=O)C4[C@H]2C(=O)N(CCCCCO)[C@@H]3C1=O (some centres undefined)

>  <VALUE_MEASURED>
-0.096

$$$$
>  <MOLECULE>
O=C1C[C@@](C(=O)NCCN2CCOCC2)(c2ccc([N+](=O)[O-])cc2)[C@@H](c2ccc(CO)cc2I)N1CC12CC3CC(CC(C3)C1)C2

>  <VALUE_MEASURED>
-0.034

$$$$
>  <MOLECULE>
COC(=O)[C@@]1(Cc2ccc(OC)cc2)[C@H]2c3cc(C(=O)N4CCCC4)n(Cc4ccc(C)c(F)c4F)c3C[C@H]2CN1C(=O)c1ccccc1

>  <VALUE_MEASURED>
-0.0553

$$$$
>  <MOLECULE>
CC1(C)[C@@H]2CC(C(O)C3C=CC4C(=O)N(c5ccccc5)C(=O)C4N3Nc3ccc([N+](=O)[O-])cc3)=C[C@H]1C2 (some centres undefined)

>  <VALUE_MEASURED>
0.0718

$$$$
>  <MOLECULE>
CC(CO)N1C(=O)[C@@H]2C3C(=O)OCCC/C=C\[C@H]3OC23C=CCN(C(C)(C)C)C(=O)[C@@H]13 (some centres undefined)

>  <VALUE_MEASURED>
-0.192

$$$$
>  <MOLECULE>
O=C1C2C=CC(C(O)c3cc(C(F)(F)F)cc(C(F)(F)F)c3)N(n3cnnc3)C2C(=O)N1Cc1ccccc1 (centres undefined)

>  <VALUE_MEASURED>
-0.0161

$$$$
>  <MOLECULE>
C=CCN1C(=O)[C@]2(O[C@H](CCn3cc([C@H](O)c4ccccc4)nn3)[C@@H]([Si](C)(C)c3ccc(OC)cc3)[C@@H]2C)c2ccccc21

>  <VALUE_MEASURED>
-0.124

$$$$
>  <MOLECULE>
[N-]=[N+]=NCc1ccccc1[C@@H]1OC(c2ccc(OCCCO)cc2)=N[C@]1(Cc1ccccc1)C(N)=O

>  <VALUE_MEASURED>
-0.0286

$$$$
>  <MOLECULE>
COC(=O)[C@@]1(Cc2ccccc2)[C@H]2c3cc(C(=O)N(C)C)n(Cc4ccsc4Br)c3C[C@H]2CN1C(=O)c1ccccc1

>  <VALUE_MEASURED>
0.107

$$$$
>  <MOLECULE>
NC(=O)NCC#Cc1ccc2c(c1)[C@]1(C(=O)N2)[C@H](c2ccccc2OCCO)N2[C@H](c3ccccc3)[C@H](c3ccccc3)OC(=O)[C@H]2[C@@H]1C(=O)Nc1nc2ccccc2s1

>  <VALUE_MEASURED>
-0.0944

$$$$
>  <MOLECULE>
COC(=O)[C@]1(CCC(=O)OC(C)(C)C)N=C(c2ccc(OCCCO)cc2)O[C@@H]1c1ccccc1CN=[N+]=[N-]

>  <VALUE_MEASURED>
-0.0045

$$$$
>  <MOLECULE>
NCCCCCNC(=O)[C@@H]1C[C@@H]2C(=O)N[C@@H](Cc3ccccc3)C(=O)N2[C@@H]1c1ccc(O)cc1

>  <VALUE_MEASURED>
-0.0425

$$$$
>  <MOLECULE>
O=C1C[C@]2(c3ccc([N+](=O)[O-])cc3)C(=O)N(CC(F)(F)F)c3cc(CO)ccc3[C@H]2N1C1CCCCC1

>  <VALUE_MEASURED>
-0.103

$$$$
>  <MOLECULE>
CCCCCCc1nc(-c2ccc(OC)nc2)cc2c1[Si](C(C)C)(C(C)C)O[C@H]2c1ccccc1

>  <VALUE_MEASURED>
-0.176

$$$$
>  <MOLECULE>
COc1cc2c(cc1OC)CN(C(=O)[C@H]1[C@@H]3C(=O)O[C@@H](c4ccccc4)[C@@H](c4ccccc4)N3[C@@H](c3ccc(O)cc3)[C@]13C(=O)Nc1ccc(C#CCCO)cc13)CC2

>  <VALUE_MEASURED>
-0.0403

$$$$
>  <MOLECULE>
COCC(=C=CC[C@@H](O)c1cccc(OCCO)c1)C[C@@H](O)c1ccccn1

>  <VALUE_MEASURED>
-0.0459

$$$$
>  <MOLECULE>
CCCCC(CC)C(O)C1C=CC2C(=O)N(Cc3ccccc3)C(=O)C2N1n1cnnc1 (centres undefined)

>  <VALUE_MEASURED>
-0.124

$$$$
>  <MOLECULE>
CC(C)N1C(=O)[C@@]2(Cc3ccccc31)c1ccccc1C(=O)N(Cc1ccccc1Cl)[C@H]2c1ccc(CO)cc1

>  <VALUE_MEASURED>
-0.105

$$$$
